Target: Neuronal acetylcholine receptor subunit alpha-7 (Homo sapiens, UniProt P36544)
Sequence (P36544 whole entry): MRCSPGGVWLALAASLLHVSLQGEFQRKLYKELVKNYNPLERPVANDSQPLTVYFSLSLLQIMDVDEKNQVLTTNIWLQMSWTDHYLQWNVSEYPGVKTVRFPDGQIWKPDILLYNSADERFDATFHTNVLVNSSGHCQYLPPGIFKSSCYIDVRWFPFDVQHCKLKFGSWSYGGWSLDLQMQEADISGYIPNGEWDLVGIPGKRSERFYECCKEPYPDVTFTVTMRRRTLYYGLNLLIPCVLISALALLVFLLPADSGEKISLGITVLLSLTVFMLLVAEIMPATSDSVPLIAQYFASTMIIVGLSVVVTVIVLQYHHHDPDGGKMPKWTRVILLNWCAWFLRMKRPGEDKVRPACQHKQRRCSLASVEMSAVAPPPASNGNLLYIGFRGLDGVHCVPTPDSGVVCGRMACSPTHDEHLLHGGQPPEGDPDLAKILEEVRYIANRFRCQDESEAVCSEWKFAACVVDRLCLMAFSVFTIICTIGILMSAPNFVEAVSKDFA
Assay: Antagonist activity at human alpha7 nAChR expressed in Xenopus oocytes assessed as increase of acetylcholine-induced effect by electrophysiology assay
property.measured: EC50 (µM)
Numbers only, in µM.

NCC(c1ccc(Cl)cc1)c1ccc(Sc2ccccc2)cc1 (stereo unspecified); 10

Below are some compounds; for each one, tell me its EC50.
1. Cc1ccc(C(c2ccc(C)cc2)N(C)C)cc1
2. c1ccc(C2CCN(CCc3nc4ccccc4[nH]3)CC2)cc1
3. CC1CCN(CCc2cc3ccccc3[nH]2)CC1
4. c1ccc(C2CCN(CCc3cc4ccccc4[nH]3)CC2)cc1
5. CC1NCCOC1c1ccc(Cl)cc1 (stereo unspecified)

[10, 10, 10, 10, 10]
